# Study system: Gal(b1-4)GlcNAc(b1-3)Gal(b1-4)GlcNAc(b1-3)Gal(b1-4)GlcNAc(b1-2)[Gal(b1-4)GlcNAc(b1-3)Gal(b1-4)GlcNAc(b1-3)Gal(b1-4)GlcNAc(b1-6)]Man(a1-6)[Gal(b1-4)GlcNAc(b1-3)Gal(b1-4)GlcNAc(b1-3)Gal(b1-4)GlcNAc(b1-2)Man(a1-3)]Man(b1-4)GlcNAc(b1-4)[Fuc(a1-6)]GlcNAc
# Measurement protocol: glycan array binding signal (z-score within array); higher = stronger binding
# Study conditions: glycan notation: IUPAC condensed, linker removed
Shown is part of a subset that was picked to be rich in the strongest signals.
Assign glycan array binding signal (z-score) to each entry below.
Response field accepts a number only; no unit should be typed.

Entry Clec18A (Homo sapiens) (protein) PFHTCDLRIDGDCFMVSSEADTYYRARMKCQRKGGVLAQIKRQKVQDILAFYLGRLETTNEVIDSDFETRNFWIGLTYKTAKDSFRWATGEHQAFTSFAFGQPDNHGFGNCVELQASAAFNWNDQRCKTRNRYICQ , glycan array binding signal (z-score) reported as 3.83

Entry DC-ASGPR-short (Homo sapiens) (protein) MTRTYENFQYLENKVKVQGFKNGPLPLQSLLQRLRSGPCHLLLSLGLGLLLLVIICVVGFQNSKFQRDLVTLRTDFSNFTSNTVAEIQALTSQGSSLEETIASLKAEVEGFKQERQAVHSEMLLRVQQLVQDLKKLTCQVATLNNNASTEGTCCPVNWVEHQDSCYWFSHSGMSWAEAEKYCQLKNAHLVVINSREEQNFVQKYLGSAYTWMGLSDPEGAWKWVDGTDYATGFQNWKPGQPDDWQGHGLGGGEDCAHFHPDGRWNDDVCQRPYHWVCEAGLGQTSQESH , glycan array binding signal (z-score) reported as -0.198

Entry Erv41-EDTA (Saccharomyces cerevisiae), Q04651 (protein) MKFLVNVALVFMVVYISYIYAAAPEHHHHHHDYDIPTTENLYFQGAMGYIDQQYVVDSQVRDTVQINMDIYVNTKCDWLQINVRDQTMDRKLVLEELQLEEMPFFIPYDTKVNDINEIITPELDEILGEAIPAEFREKLDTRSFFDESDPNKAHLPEFNGCHVFGSIPVNRVSGELQITAKSLGYVASRKAPLEELKFNHVINEFSFGDFYPYIDNPLDNTAQFNQDEPLTTYVYYTSVVPTLFKKLGAEVDTNQYSVNDYRYLYKDVAAKGDKMPGIFFKYNFEPLSIVVSDVRL , glycan array binding signal (z-score) reported as 2.65

Entry OGAN (protein) MVQKESQATLEERESELSSNPAASAGASLEPPAAPAPGEDNPAGAGGAAVAGAAGGARRFLCGVVEGFYGRPWVMEQRKELFRRLQKWELNTYLYAPKDDYKHRMFWREMYSVEEAEQLMTLISAAREYEIEFIYAISPGLDITFSNPKEVSTLKRKLDQVSQFGCRSFALLFNDIDHNMCAADKEVFSSFAHAQVSITNEIYQYLGEPETFLFCPTEYCGTFCYPNVSQSPYLRTVGEKLLPGIEVLWTGPKVVSKEIPVESIEEVSKIIKRAPVIWDNIHANDYDQKRLFLGPYKGRSTELIPRLKGVLTNPNCEFEANYVAIHTLATWYKSNMNGVRKDVVMTDSEDSTVSIQIKLENEGSDEDIETDVLYSPQMALKLALTEWLQEFGVPHQY , glycan array binding signal (z-score) reported as -0.03

Entry SP15308B-bot-339-22-339 (Bacteroides ovatus) (protein) NEWEDEQYEQYVSFKAPIASGSDGVTTIYVRYKDNGKVTYQLPIIVSGSTVNSQDRDIHIAVDKDTLKTLNIERFSLYRPELWYTEMEEDKYEFPETVHIPAGSCVELLNIDFNLQDIDMLEKWVLPLTIVDDGSYAYQSHPRKNYAKALLKVVPFNNYSGSYTASSMKVYTYINGKPDTNARTTDKRTGYVVDNNSIFFYAGLINEDMDKDMRKKYKINVHFKEDGTLDMKQDDPSNEMEFELIGTPTYSSTSVMDATRPYLERRYVQIMFEYDFQDFTYGGSGTEVIPIKYRVAGSMTLLRNINTQIPDEDQQIEW , glycan array binding signal (z-score) reported as 2.24

The values you see were collected from the supplement of paper PMC8728848.
